experiment: Cytotoxicity against african green monkey Vero cells assessed as cell death by MTT assay; type: cell-based; settings: chlorocebus sabaeus, Vero cells
RECORDED_METRIC: CC50

Query :: Tell me the measured CC50 of Oc1cc(O)cc(Oc2c(O)cc(Oc3c(O)cc(O)cc3O)cc2O)c1 [TRIPHLORETHOL A] , please.
Result :: > 200 µM

* * *

biological target: Replicase polyprotein 1ab (Severe acute respiratory syndrome-related coronavirus, UniProt P0C6X7)
// assign rule met if Ki falls strictly below 20 µM, else rule not met (ties count as rule not met)

                            compound_string         label
0  Oc1cc(O)cc(Oc2c(O)cc(O)c3c2Oc2c(O)cc(Oc4c(O)cc(Oc5c(O)cc(O)c6c5Oc5c(O)cc(O)cc5O6)cc4O)cc2O3)c1      rule met
1  Oc1cc(O)cc(Oc2c(O)cc(O)c3c2Oc2c(O)cc(O)cc2O3)c1      rule met
2  Oc1cc(O)cc(Oc2c(Oc3c(O)cc(O)cc3O)cc(O)c3c2Oc2c(O)cc(O)cc2O3)c1  rule not met
3  Oc1cc(O)cc(Oc2c(O)cc(O)c3c2Oc2c(O)cc4oc5c(Oc6cc(O)cc(O)c6)c(O)cc(O)c5c4c2O3)c1      rule met
4  Oc1cc(O)cc(Oc2c(O)cc(O)c3c2Oc2c(O)cc(Oc4c(O)cc(O)cc4O)cc2O3)c1      rule met

Consider the additional compound presented here.
Query :: Does the reported Ki of the following compound sit strictly below 20 µM? Oc1cc(O)c(Oc2cc(O)cc(O)c2Oc2cc(O)cc(O)c2-c2c(O)cc(O)cc2O)c(O)c1
Result :: rule not met

* * *

target: Replicase polyprotein 1ab (Severe acute respiratory syndrome-related coronavirus); assay: Inhibition of SARS coronavirus 3C-like protease cis-cleavage activity transfected in african green monkey Vero cells using SAVLQSGFRK as substrate after 5 hrs by luciferase reporter gene assay; assay type: cell-based
pIC50: −log10 of the molar value.
Everything with pIC50 lower than 4 is Not fulfilled; everything else, including exactly 4, is Fulfilled.

In [3]: df
Out[3]:
                                   compound          label
0  Oc1cc(O)c2oc3cc(O)c4oc5cc(O)cc(O)c5oc4c3oc2c1 [DIOXINODEHYDROECKOL]  Not fulfilled

Query :: Kindly determine if pIC50 recorded for Oc1cc(O)c(Oc2cc(O)cc(O)c2Oc2cc(O)cc(O)c2-c2c(O)cc(O)cc2O)c(O)c1 is above or exactly 4.
Result :: Not fulfilled

Query :: Request: Oc1cc(O)cc(Oc2c(O)cc(O)c3c2Oc2c(O)cc(Oc4c(O)cc(Oc5c(O)cc(O)c6c5Oc5c(O)cc(O)cc5O6)cc4O)cc2O3)c1
Result :: Fulfilled

Query :: Request: Oc1cc(O)cc(Oc2c(O)cc(O)c3c2Oc2c(O)cc4oc5c(Oc6cc(O)cc(O)c6)c(O)cc(O)c5c4c2O3)c1
Result :: Not fulfilled

* * *

UniProt:P0C6X7 data, read-out pIC50
Please express pIC50 as -log10 of the molar concentration.

>>> df
                                   molecule  endpoint_value
0  Oc1cc(O)cc(Oc2c(O)cc(O)c3c2Oc2c(O)cc4oc5c(Oc6cc(O)cc(O)c6)c(O)cc(O)c5c4c2O3)c1            4.78
1  Oc1cc(O)cc(Oc2c(O)cc(O)c3c2Oc2c(O)cc(O)cc2O3)c1            5.06
2  Oc1cc(O)cc(Oc2c(O)cc(O)c3c2Oc2c(O)cc(Oc4c(O)cc(Oc5c(O)cc(O)c6c5Oc5c(O)cc(O)cc5O6)cc4O)cc2O3)c1            5.57
3  Oc1cc(O)c2oc3cc(O)c4oc5cc(O)cc(O)c5oc4c3oc2c1 [DIOXINODEHYDROECKOL]            3.80
4  Oc1cc(O)c(Oc2cc(O)cc(O)c2Oc2cc(O)cc(O)c2-c2c(O)cc(O)cc2O)c(O)c1            4.65
5  Oc1cc(O)cc(Oc2c(O)cc(O)c3c2Oc2c(O)cc(Oc4c(O)cc(O)cc4O)cc2O3)c1            4.38

Here is the next item to consider.
Query :: Tell me the measured pIC50 of Oc1cc(O)cc(Oc2c(Oc3c(O)cc(O)cc3O)cc(O)c3c2Oc2c(O)cc(O)cc2O3)c1 , please.
Result :: 4.88

* * *

Form field: Ratio CC50/IC50 (one value per entry).
test: Selectivity index, ratio of CC50 for african green monkey Vero cells to IC50 for SARS coronavirus 3C-like protease cis-cleavage activity transfected in african green monkey Vero cells; assay type: functional

Example entries begin here.
In [3]: df
Out[3]:
                                   molecule  recorded_metric  endpoint_value
0  Oc1cc(O)cc(Oc2c(O)cc(O)c3c2Oc2c(O)cc(Oc4c(O)cc(Oc5c(O)cc(O)c6c5Oc5c(O)cc(O)cc5O6)cc4O)cc2O3)c1  Ratio CC50/IC50            >2.9
1  Oc1cc(O)c(Oc2cc(O)cc(O)c2Oc2cc(O)cc(O)c2-c2c(O)cc(O)cc2O)c(O)c1  Ratio CC50/IC50            >1.1
2  Oc1cc(O)cc(Oc2c(O)cc(Oc3c(O)cc(O)cc3O)cc2O)c1  Ratio CC50/IC50              <1
3  Oc1cc(O)cc(Oc2c(O)cc(O)c3c2Oc2c(O)cc(Oc4c(O)cc(O)cc4O)cc2O3)c1  Ratio CC50/IC50            >1.8

Query :: Tell me the measured Ratio CC50/IC50 of Oc1cc(O)cc(Oc2c(O)cc(O)c3c2Oc2c(O)cc4oc5c(Oc6cc(O)cc(O)c6)c(O)cc(O)c5c4c2O3)c1 , please.
Result :: >1.1

Query :: Request: Oc1cc(O)cc(Oc2c(Oc3c(O)cc(O)cc3O)cc(O)c3c2Oc2c(O)cc(O)cc2O3)c1
Result :: >1.8

Query :: Request: Oc1cc(O)c2oc3cc(O)c4oc5cc(O)cc(O)c5oc4c3oc2c1 [DIOXINODEHYDROECKOL]
Result :: >1.4

Query :: Request: Oc1cc(O)cc(Oc2c(O)cc(O)c3c2Oc2c(O)cc(O)cc2O3)c1
Result :: <1

* * *

Form field: Kd (one value per entry).
target: Replicase polyprotein 1ab (Severe acute respiratory syndrome-related coronavirus)
Quick note: give the figure in µM, leave out the unit.

In [3]: df
Out[3]:
                            compound_string  recorded_metric  endpoint_value
0  Oc1cc(O)cc(Oc2c(O)cc(O)c3c2Oc2c(O)cc(Oc4c(O)cc(Oc5c(O)cc(O)c6c5Oc5c(O)cc(O)cc5O6)cc4O)cc2O3)c1               Kd            10.3

Here is the next item to consider.
Query :: Tell me the measured Kd of COc1ccc([C@@H]2CC(=O)c3c(O)cc(O)cc3O2)cc1O , please.
Result :: 24.5
